Reference for the values: patent US20150218212A1

Each record here notes measured Log10TGI50.
# System: DU-145
# assay-info: NCI screening panel, DU-145 (Prostate Cancer)
# Format: cell-based, human

[
  {
    "structure-smiles-string": "CC(C)C[C@H](NC(=O)[C@H](COC(F)F)NC(=O)CN1CCOCC1)C(=O)N[C@@H](COC(F)F)C(=O)N[C@@H](Cc1ccccc1)C(=O)[C@@]1(C)CO1",
    "Log10TGI50": "−4.91"
  },
  {
    "structure-smiles-string": "CC(C)C[C@H](NC(=O)[C@H](COC(F)F)NC(=O)[C@H](COC(F)F)NC(=O)[C@H](CCc1ccccc1)NC(=O)CN1CCOCC1)C(=O)[C@@]1(C)CO1",
    "Log10TGI50": "−4.75"
  },
  {
    "structure-smiles-string": "CC(C)C[C@H](NC(=O)[C@H](Cc1ccccc1)NC(=O)[C@H](COC(F)F)NC(=O)[C@H](COC(F)F)NC(=O)CN1CCOCC1)C(=O)[C@@]1(C)CO1",
    "Log10TGI50": "−5.94"
  },
  {
    "structure-smiles-string": "CC(C)C[C@H](NC(=O)[C@H](COC(F)F)NC(=O)CN1CCOCC1)C(=O)N[C@@H](Cc1ccccc1)C(=O)N[C@@H](CC(C)C)C(=O)[C@@]1(C)CO1",
    "Log10TGI50": "−5.00"
  },
  {
    "structure-smiles-string": "CC(C)C[C@H](NC(=O)[C@H](COC(F)F)NC(=O)CN1CCOCC1)C(=O)N[C@@H](Cc1ccccc1)C(=O)N[C@@H](Cc1ccccc1)C(=O)[C@@]1(C)CO1",
    "Log10TGI50": "−5.79"
  },
  {
    "structure-smiles-string": "CC(C)C[C@H](NC(=O)[C@H](COC(F)F)NC(=O)CN1CCOCC1)C(=O)N[C@@H](COC(F)F)C(=O)N[C@@H](CC(C)C)C(=O)[C@@]1(C)CO1",
    "Log10TGI50": "−4.66"
  },
  {
    "structure-smiles-string": "CC(C)C[C@H](NC(=O)[C@H](COC(F)F)NC(=O)[C@H](COC(F)F)NC(=O)[C@H](COC(F)F)NC(=O)CN1CCOCC1)C(=O)[C@@]1(C)CO1",
    "Log10TGI50": "−4.84"
  }
]

----------
# Test system: NCI-H322M
# assay-info: NCI screening panel, NCI-H322M (Non-Small Cell Lung Cancer)
# Assay type: cell-based, human
So basically: is Log10LC50 under -5? Then 1. Not under? Then 0.

[
  {
    "structure-smiles-string": "CC(C)C[C@H](NC(=O)[C@H](Cc1ccccc1)NC(=O)[C@H](COC(F)F)NC(=O)[C@H](COC(F)F)NC(=O)CN1CCOCC1)C(=O)[C@@]1(C)CO1",
    "label-class": 0
  },
  {
    "structure-smiles-string": "CC(C)C[C@H](NC(=O)[C@H](COC(F)F)NC(=O)CN1CCOCC1)C(=O)N[C@@H](COC(F)F)C(=O)N[C@@H](Cc1ccccc1)C(=O)[C@@]1(C)CO1",
    "label-class": 0
  },
  {
    "structure-smiles-string": "CC(C)C[C@H](NC(=O)[C@H](COC(F)F)NC(=O)[C@H](COC(F)F)NC(=O)[C@H](CCc1ccccc1)NC(=O)CN1CCOCC1)C(=O)[C@@]1(C)CO1",
    "label-class": 0
  },
  {
    "structure-smiles-string": "CC(C)C[C@H](NC(=O)[C@H](COC(F)F)NC(=O)CN1CCOCC1)C(=O)N[C@@H](Cc1ccccc1)C(=O)N[C@@H](CC(C)C)C(=O)[C@@]1(C)CO1",
    "label-class": 1
  }
]
